Measured inhibition, listed per entry for reference.
Test: inhibitors of TNFa-induced NFkB p65 translocation, primary screen, imaging, HUVEC, MLSMR starter and 10KST1 sets (AID 438);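 further: compound added about 3h40 before a 20 min TNFalpha stimulation; signal is the nuclear over cytoplasmic p65 intensity ratio per well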
Conditions: HUVEC TNFa-induced p65 nuclear translocation; at 2 µM, active compounds read high, 0% TNFa-plus-vehicle, 100% no-TNFa wells
Activity calls are given as the source filed them.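 How the source made its calls: active means inhibition above 20% together with a positive visual image hit; inconclusive means visual image hit but inhibition not above 20%; inactive means no visual image hit.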

Enquiry: // returns reported inhibition for input CCCn1nc(NS(=O)(=O)c2ccccc2)c2cc3ccccc3nc21
Return: -3.8% (inactive)

Enquiry: // returns reported inhibition for input CCOc1ccc(N2CC(C(=O)Nc3ccc(F)cc3F)CC2=O)cc1 (stereo not drawn)
Return: 10.1% (inactive)

Enquiry: // returns reported inhibition for input C=CCOc1ccc(/C(O)=C2\C(=O)C(=O)N(CCOC)C2c2cccnc2)cc1 (stereo not drawn)
Return: 3.4% (inactive)

Enquiry: // returns reported inhibition for input Cc1cccc2cc(CN(Cc3nnnn3C3CCCC3)C3CCCCC3)c(=O)[nH]c12
Return: 5.8% (inactive)

Enquiry: // returns reported inhibition for input CCCn1cc(SCC(=O)NCc2ccco2)c2ccccc21
Return: -25.2% (inactive)

Enquiry: // returns reported inhibition for input COC(=O)c1c(C(=O)OC)n(CCCN)c2ccc(C)cc12
Return: 10.9% (inactive)

Enquiry: // returns reported inhibition for input COc1cc(-c2nc(-c3cccc(C(F)(F)F)c3)no2)cc(OC)c1OC
Return: 5.3% (inactive)

Enquiry: // returns reported inhibition for input c1ccc(CNC2=NCCC2)nc1
Return: -5.7% (inactive)

---

Assay: reduction of polyQ htt aggregates in cells – imaging, exon1htt(103Q)mCFP cells, high-content imaging, primary screen (AID 483);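 further: compound exposure lasted 3 days before fixation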
Conditions: exon1htt(103Q)mCFP cell line, aggregate imaging, at 2 µM; active compounds read high
Active and inactive are the calls of the source.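 Rule for the calls: active = visual image review flags a hit and inhibition of aggregation exceeds 20%; inconclusive = visual hit but inhibition at or below 20%; inactive = no hit on visual image review.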
measure: inhibition of aggregation

Answered examples (4):
O=C(NC1CCCC1)c1cc(-c2cccs2)on1	-2.2% (inactive)
COCCn1c(NCc2ccc(C)cc2)nc2c1c(=O)[nH]c(=O)n2C	29.4% (inactive)
O=C1C2CCCN2C(c2ccc(Cl)cc2)N1c1nccs1 (stereo unspecified)	-18.3% (inactive)
CN(C)c1ccc(NC(=O)CSCc2nc3c(nnn3Cc3ccc(F)cc3)c(=O)[nH]2)cc1	-8.4% (inactive)

Enquiry: // returns reported inhibition of aggregation for input C/C(N)=C(\C#N)C(=O)NCCc1ccccn1
Return: -11.6% (inactive)

Enquiry: // returns reported inhibition of aggregation for input CCCS(=O)(=O)N1CCN(C(=O)CCC2CCCC2)CC1
Return: 15.8% (inactive)

---

Assay: inhibitors of TNFa-induced NFkB p65 translocation, primary screen, imaging, HUVEC, MLSMR starter and 10KST1 sets (AID 438);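 further: compound added about 3h40 before a 20 min TNFalpha stimulation; signal is the nuclear over cytoplasmic p65 intensity ratio per well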
Settings: HUVEC TNFa-induced p65 nuclear translocation; at 2 µM, active compounds read high, 0% TNFa-plus-vehicle, 100% no-TNFa wells
measure: inhibition (%)
Give the quantity in %, number only.

Cc1sc2nc(SCC(=O)NCc3ccco3)n(CCc3ccccc3)c(=O)c2c1C	-17.7
Cc1c(C(=O)OC(C)C)[nH]c2c1C(=O)CCC2	-3.5
COc1ccc(CNc2nc(SCC(=O)NCc3ccco3)nc3ccccc23)cc1	0.9
COc1ccc(-c2nn(-c3ccccc3)cc2/C=N/n2cnnc2)cc1OC	0.7
CCSc1ncc(C#N)c(=O)[nH]1	3.5

Enquiry: // returns reported inhibition for input COc1cccc(C2=NOC(C(=O)Nc3ccc(C(C)=O)cc3)C2)c1 (centres undefined)
Return: -16.3

Enquiry: // returns reported inhibition for input O=c1c2cn[nH]c2nc(SCc2ccc3c(c2)OCCO3)n1-c1ccccc1
Return: 15.8

Enquiry: // returns reported inhibition for input CCOC(=O)NC(c1ccccc1)C1CCCCC1=O (centres undefined)
Return: -3.4

Enquiry: // returns reported inhibition for input Cc1ccc(NC2c3ncccc3C(=O)N2C2CCCCC2)cc1C (centres undefined)
Return: 0.7

Enquiry: // returns reported inhibition for input Cc1ccc(C(=O)CSc2nnc(CNc3ccc(C)cc3C)o2)cc1
Return: -7.3

Enquiry: // returns reported inhibition for input COc1ccc2c(c1)c1c(n2C(C)=O)C(OC(C)=O)=NCC1
Return: -1.4

Enquiry: // returns reported inhibition for input Cc1ccc(-n2ncc3c(N4CCN(c5ccc(F)cc5)CC4)ncnc32)c(C)c1
Return: -6.8

Enquiry: // returns reported inhibition for input Cn1ccnc1C(O)c1ccco1 (centres undefined)
Return: 3.3

Enquiry: // returns reported inhibition for input CCn1cc(C2=NOC(C(=O)Nc3cc(C)nn3-c3ccccc3)C2)c(C)n1 (centres undefined)
Return: -3.4

Enquiry: // returns reported inhibition for input O=C(NCc1ccco1)C1CCN(C(=O)c2cc3sccc3n2Cc2ccc(F)cc2)CC1
Return: -16.7

Enquiry: // returns reported inhibition for input Cc1[nH]c(=O)[nH]c(=O)c1S(=O)(=O)Nc1ccc(Oc2ccccc2)cc1
Return: -3.2

Enquiry: // returns reported inhibition for input COc1ccc2c(C(=O)CN(C)C3CCCCC3)c[nH]c2c1
Return: -0.9

Enquiry: // returns reported inhibition for input Cc1cnn(C(=S)NCc2ccco2)c1
Return: -13.6

Enquiry: // returns reported inhibition for input Cc1ccc(CSc2nc3c(c(=O)[nH]2)C(c2ccncc2)C2=C(CCCC2=O)N3)cc1 (centres undefined)
Return: -16.7

Enquiry: // returns reported inhibition for input O=C(C1CC1)N1CCc2cc(S(=O)(=O)N(CCO)Cc3ccccc3)ccc21
Return: 7.7

Enquiry: // returns reported inhibition for input CCn1c(SCC(N)=O)nc2c1c(=O)n(C)c(=O)n2C
Return: 4.9

Enquiry: // returns reported inhibition for input O=C(O)c1cc2c([nH]c1=O)CCCC2
Return: -18.4

Enquiry: // returns reported inhibition for input Clc1cccc(-c2nn3c(Cn4cnc5ccccc54)nnc3s2)c1
Return: 4.7

Enquiry: // returns reported inhibition for input COc1cccc(Oc2ccc(N)cc2)c1
Return: -0.6
